Tested on: endogenous Hh target gene expression (Gli1 mRNA)
assay protocol: Gli1 mRNA levels in NIH-3T3 cells with ShhN
Type: cell-based
experimental context: Mus musculus, NIH3T3; NIH-3T3 w/ ShhN
value kind: pIC50
// pIC50 is dimensionless: -log10 of concentration (M)

query: State measured pIC50 of the molecule CCOc1ccc(-[n+]2cc(-c3ccc(Br)cc3)n3c2CCCCC3)cc1 with endogenous Hh target gene expression (Gli1 mRNA).
result: 5.30

Provenance of the data: patent US9611276B2
